# target: T1, human CD73 ecto-domain recombinant protein (huCD73) (human, UniProt P21589 27-547)
# T1 construct: also called soluble huCD73; soluble recombinant CD73
# T1 sequence: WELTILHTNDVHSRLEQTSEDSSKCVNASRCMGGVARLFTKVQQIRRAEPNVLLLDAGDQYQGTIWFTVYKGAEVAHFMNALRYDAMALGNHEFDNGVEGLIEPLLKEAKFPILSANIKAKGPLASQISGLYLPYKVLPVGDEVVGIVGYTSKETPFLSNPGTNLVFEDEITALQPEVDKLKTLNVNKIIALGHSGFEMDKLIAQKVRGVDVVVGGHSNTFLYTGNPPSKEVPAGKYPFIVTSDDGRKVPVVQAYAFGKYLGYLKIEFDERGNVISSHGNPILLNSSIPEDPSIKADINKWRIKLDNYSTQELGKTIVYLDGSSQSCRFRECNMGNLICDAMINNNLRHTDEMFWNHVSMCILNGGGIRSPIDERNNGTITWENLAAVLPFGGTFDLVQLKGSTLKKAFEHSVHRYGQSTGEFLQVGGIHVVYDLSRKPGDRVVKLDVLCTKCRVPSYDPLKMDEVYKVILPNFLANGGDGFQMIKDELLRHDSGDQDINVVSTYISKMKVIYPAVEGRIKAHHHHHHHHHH
# method description: indirect ELISA, coated huCD73 recombinant protein, curve fit
measured endpoint: Bottom (OD value)
One number for each entry, in OD value.

binder	Bottom / OD value
JB94H3L3 (antibody, human IgG1, kappa, V domains shown, Humanized antibody of the 94 clone, human IgG1 / kappa) VH: QVQLQQSGAEVKKPGASVKLSCKASGYTFTSYWMHWVRQRPGQGLEWIGYINPSSGYTKSNQKFKDRATLTADTSTSTAYMELSSLRSEDTAVYYCGRWLLSAWFAYWGQGTLVTVSS VL: DIQMTQSPSSLSASVGDRVTITCKASQDINTYLSWFQQKPGKSPKSLIYRSNILVDGVPSRFSGSGSGQDYTLTISSLQPEDFAIYYCLQYDDFPYTFGQGTKLEIKR	320
JB24H3L3 (antibody, human IgG1, kappa, V domains shown, Humanized antibody of JB24Chi, human IgG1 / kappa) VH: QVQLVQSGAEVKKPGASVKMSCKASGYTFTDYNMHWVKQSHGKSLEWIGYIKPHNAGTTYNPKFEGRATLTVDTSASTAYMELRSLRSEDTAVYYCVRSDFLYWYFDVWGQGTTVTVSS VL: DIVMTQSPSSLSASVGDRVTITCTASSSVSSSYLHWYQQKPGSSPKLWIYSTSNLASGVPGRFSGSGSGTDYTLTISSLQPEDFATYYCHQYHRSPLTFGAGTKLEIKR	9.8

We next turn to a different binder, shown below.
Any idea what its Bottom is? The binder is JB24H3L2 (antibody, human IgG1, kappa, V domains shown, Humanized antibody of JB24Chi, human IgG1 / kappa) VH: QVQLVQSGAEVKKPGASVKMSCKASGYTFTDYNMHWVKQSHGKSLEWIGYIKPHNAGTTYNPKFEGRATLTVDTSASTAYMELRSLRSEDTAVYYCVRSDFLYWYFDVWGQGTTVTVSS VL: DIQMTQSPSSLSASVGDRVTITCTASSSVSSSYLHWYQQKPGSAPKLWIYSTSNLASGVPSRFSGSGSGTDYTLTISSLQPEDFATYYCHQYHRSPLTFGAGTKLEIKR
89.1
